Form field: herbicidal effect rating, ECHORC (one value per entry).
system: Echinochloa oryzoides (Ard.) Fritsch.; experiment: Preemergence weed control under flooded paddy conditions, ECHORC (Watergrass (Calif.)); type: in vivo; conditions: 0.2500 kg/ha; preemergence weeds, flooded paddy; rated three to four weeks after treatment; note: meaning of each grade not given here

Here is how some molecules turned out for herbicidal effect rating, ECHORC.
[
  {
    "SMILES STRUCTURE": "CCCCOCc1nsc2ccc(-n3c(=O)cc(C(F)(F)F)n(C)c3=O)cc12",
    "herbicidal effect rating, ECHORC": 9.0
  },
  {
    "SMILES STRUCTURE": "Cn1c(C(F)(F)F)cc(=O)n(-c2ccc3snc(C(Cl)Cl)c3c2)c1=O",
    "herbicidal effect rating, ECHORC": 6.0
  },
  {
    "SMILES STRUCTURE": "Cn1c(C(F)(F)F)cc(=O)n(-c2ccc3snc(COC(=O)c4ccccc4)c3c2)c1=O",
    "herbicidal effect rating, ECHORC": 6.0
  },
  {
    "SMILES STRUCTURE": "CCOCc1nsc2ccc(-n3c(=O)cc(C(F)(F)F)n(C)c3=O)cc12",
    "herbicidal effect rating, ECHORC": 9.0
  },
  {
    "SMILES STRUCTURE": "C=CCOCc1nsc2ccc(-n3c(=O)cc(C(F)(F)F)n(C)c3=O)cc12",
    "herbicidal effect rating, ECHORC": 4.0
  }
]

Record summary for Cn1c(C(F)(F)F)cc(=O)n(-c2ccc3snc(COC(CF)CF)c3c2)c1=O : reported herbicidal effect rating, ECHORC = 5.5

C#CCNC(=O)COc1ccc(C)cc1-c1noc2ccc(-n3c(=O)cc(C(F)(F)F)n(C)c3=O)cc12 has a reported herbicidal effect rating, ECHORC of 0.0

According to the records, this molecule COCCOC(=O)COc1ccc(C)cc1-c1nsc2ccc(-n3c(=O)cc(C(F)(F)F)n(C)c3=O)cc12 displays herbicidal effect rating, ECHORC of 7.0

Field herbicidal effect rating, ECHORC (entry CCN(CC)c1nsc2ccc(-n3c(=O)cc(C(F)(F)F)n(C)c3=O)cc12 ) reads 0.0

// Cc1ccc(OCC(=O)NS(C)(=O)=O)c(-c2nsc3ccc(-n4c(=O)cc(C(F)(F)F)n(C)c4=O)cc23)c1 : herbicidal effect rating, ECHORC value = 9.0

---

system: Cyperus serotinus, Rottb.; assay: Postemergence weed control under flooded paddy conditions, CYPSE (Flatsedge); type: in vivo; conditions: Rate 0.1250 kg/ha, rated three to four weeks after treatment
READOUT: herbicidal effect rating, CYPSE
Write the number on its own, no unit after it.

// worked examples, herbicidal effect rating, CYPSE included
[
  {
    "SMILES STRUCTURE": "COc1cc(C)ccc1-c1nsc2ccc(-n3c(=O)cc(C(F)(F)F)n(C)c3=O)cc12",
    "SUBJECT OF TEST": "Cyperus serotinus, Rottb.",
    "RESULT VALUE": 9.0
  },
  {
    "SMILES STRUCTURE": "COC(=O)COc1ccc(C)cc1-c1noc2ccc(-n3c(=O)cc(C(F)(F)F)n(C)c3=O)c(Cl)c12",
    "SUBJECT OF TEST": "Cyperus serotinus, Rottb.",
    "RESULT VALUE": 0.0
  }
]

For reference, reported herbicidal effect rating, CYPSE for COc1cc(C)c(I)cc1-c1nsc2ccc(-n3c(=O)cc(C(F)(F)F)n(C)c3=O)cc12 stands at 0.0

Measured herbicidal effect rating, CYPSE of COc1c(-c2nsc3ccc(-n4c(=O)cc(C(F)(F)F)n(C)c4=O)cc23)ccc(C)c1C : 0.0

herbicidal effect rating, CYPSE reading for Cn1c(C(F)(F)F)cc(=O)n(-c2ccc3snc(-c4ccccc4)c3c2)c1=O : 7.0

Briefly, herbicidal effect rating, CYPSE measured for COC(=O)COc1ccc(C)cc1-c1noc2cc(F)c(-n3c(=O)cc(C(F)(F)F)n(C)c3=O)cc12 : 0.0

// recorded herbicidal effect rating, CYPSE for CC(C)S(=O)(=O)NC(=O)c1nsc2ccc(-n3c(=O)cc(C(F)(F)F)n(C)c3=O)cc12 : 9.0

---

system: Cyperus iria; test: Preemergence weed control under flooded paddy conditions, CYPIR (Rice Flatsedge); type: in vivo; details: 0.0320 kg/ha; preemergence, flooded paddy; rated three to four weeks after treatment
// values below are reported CYPIR herbicidal rating
Please give the numeric answer without any surrounding text.

[
  {
    "COMPOUND": "CC(C)N(C(C)C)S(=O)(=O)NC(=O)C(C)(C)c1nsc2ccc(-n3c(=O)cc(C(F)(F)F)n(C)c3=O)cc12 [Example 511]",
    "SUBJECT OF TEST": "Cyperus iria",
    "CYPIR herbicidal rating": 0.0
  }
]

// CYPIR herbicidal rating value for COC(=O)C(C)Oc1ccc(I)cc1-c1nsc2ccc(-n3c(=O)cc(C(F)(F)F)n(C)c3=O)cc12 (stereo not shown) [Example 460] : 0.0

Documented CYPIR herbicidal rating of Cn1c(C(F)(F)F)cc(=O)n(-c2ccc3snc(C(=O)NO)c3c2)c1=O [Example 471] : 6.0

Cn1c(C(F)(F)F)cc(=O)n(-c2ccc3snc(C(=O)NS(=O)(=O)CCc4ccccc4)c3c2)c1=O [Example 485] yielded CYPIR herbicidal rating of 2.0

---

system: Monochoria vaginalis, Presl.; experiment: Preemergence weed control under flooded paddy conditions, MOOVA (Monochoria); type: in vivo; conditions: 0.0313 kg/ha; preemergence weeds, flooded paddy; rated three to four weeks after treatment; note: meaning of each grade not given here
READOUT: herbicidal effect rating, MOOVA

[
  {
    "MOLECULE": "CCOCCOCc1nsc2ccc(-n3c(=O)cc(C(F)(F)F)n(C)c3=O)cc12",
    "SUBJECT OF TEST": "Monochoria vaginalis, Presl.",
    "herbicidal effect rating, MOOVA": 9.0
  },
  {
    "MOLECULE": "C#CCNC(=O)COc1ccc(C)cc1-c1noc2ccc(-n3c(=O)cc(C(F)(F)F)n(C)c3=O)cc12",
    "SUBJECT OF TEST": "Monochoria vaginalis, Presl.",
    "herbicidal effect rating, MOOVA": 2.0
  },
  {
    "MOLECULE": "Cn1c(C(F)(F)F)cc(=O)n(-c2ccc3snc(C(Cl)Cl)c3c2)c1=O",
    "SUBJECT OF TEST": "Monochoria vaginalis, Presl.",
    "herbicidal effect rating, MOOVA": 9.0
  }
]

Noted herbicidal effect rating, MOOVA for COCC(C)OC(=O)COc1ccc(C)cc1-c1nsc2ccc(-n3c(=O)cc(C(F)(F)F)n(C)c3=O)cc12 (racemic) , tested on Monochoria vaginalis, Presl.: 9.0

Entry Cc1ccc(OC2CC(C)OC2=O)c(-c2nsc3ccc(-n4c(=O)cc(C(F)(F)F)n(C)c4=O)cc23)c1 (racemic) : herbicidal effect rating, MOOVA on Monochoria vaginalis, Presl. = 0.0

C=CCOCc1nsc2ccc(-n3c(=O)cc(C(F)(F)F)n(C)c3=O)cc12 on Monochoria vaginalis, Presl. gives herbicidal effect rating, MOOVA = 9.0

---

test system: Cyperus serotinus, Rottb.; assay: Preemergence weed control under flooded paddy conditions, CYPSE (Flatsedge); type: in vivo; details: Rate 0.1250 kg/ha, preemergence weeds, rated three to four weeks after treatment; note: meaning of each grade not given here
Each entry below carries its recorded herbicidal effect rating, CYPSE.
Just the number, please.

Field: example entries. Status: answers known.
[
  {
    "MOLECULE": "COC(=O)C(C)Oc1ccc(OC)cc1-c1nsc2ccc(-n3c(=O)cc(C(F)(F)F)n(C)c3=O)cc12 (stereo not drawn) [Example 348]",
    "SUBJECT OF TEST": "Cyperus serotinus, Rottb.",
    "READOUT": "herbicidal effect rating, CYPSE",
    "RESULT VALUE": 0.0
  },
  {
    "MOLECULE": "CN(C)C(=O)c1nsc2ccc(-n3c(=O)cc(C(F)(F)F)n(C)c3=O)cc12 [Example 329]",
    "SUBJECT OF TEST": "Cyperus serotinus, Rottb.",
    "READOUT": "herbicidal effect rating, CYPSE",
    "RESULT VALUE": 0.0
  },
  {
    "MOLECULE": "C#CCOC(=O)COc1cccc(-c2nsc3ccc(-n4c(=O)cc(C(F)(F)F)n(C)c4=O)cc23)c1 [Example 326]",
    "SUBJECT OF TEST": "Cyperus serotinus, Rottb.",
    "READOUT": "herbicidal effect rating, CYPSE",
    "RESULT VALUE": 4.5
  },
  {
    "MOLECULE": "Cn1c(C(F)(F)F)cc(=O)n(-c2ccc3snc(C(=O)NS(=O)(=O)Cc4ccccc4)c3c2)c1=O [Example 341]",
    "SUBJECT OF TEST": "Cyperus serotinus, Rottb.",
    "READOUT": "herbicidal effect rating, CYPSE",
    "RESULT VALUE": 2.5
  },
  {
    "MOLECULE": "CC(Oc1ccccc1-c1nsc2ccc(-n3c(=O)cc(C(F)(F)F)n(C)c3=O)cc12)C(=O)NS(C)(=O)=O (stereo not drawn) [Example 335]",
    "SUBJECT OF TEST": "Cyperus serotinus, Rottb.",
    "READOUT": "herbicidal effect rating, CYPSE",
    "RESULT VALUE": 6.0
  }
]

Cn1c(C(F)(F)F)cc(=O)n(-c2ccc3snc(-c4ccccc4OCC(=O)O)c3c2)c1=O [Example 312] has a reported herbicidal effect rating, CYPSE of 4.5

The molecule identified as CN(O)C(=O)COc1ccccc1-c1nsc2ccc(-n3c(=O)cc(C(F)(F)F)n(C)c3=O)cc12 [Example 336] registered its herbicidal effect rating, CYPSE at 2.0

The recorded herbicidal effect rating, CYPSE for CC(OS(C)(=O)=O)c1nsc2ccc(-n3c(=O)cc(C(F)(F)F)n(C)c3=O)cc12 (stereo not drawn) [Example 309] is 0.0

Query CC(O)c1nsc2ccc(-n3c(=O)cc(C(F)(F)F)n(C)c3=O)cc12 (stereo not drawn) [Example 308] yields herbicidal effect rating, CYPSE of 3.0
